# credit: PubChem BioAssay

# Lookup of reported inhibition keyed by entry
experiment: 384-well plate pilot, post-Golgi transport modulator project, inhibition of yeast transport mutant growth (AID 636); details: absorbance 615 nm, about 18 h, hits give high values
Express the result in % but write the number alone.

Reference set (5 entries):
compound=COCc1cc(C)c2c(N)c(C#N)sc2n1 property=inhibition recorded_result=-1.32
compound="Cc1ccccc1N(C)S(=O)(=O)c1ccc2[nH]cc(C(=O)NCC3CCCO3)c(=O)c2c1 (configuration not stated)" property=inhibition recorded_result=-4.61
compound="CC(CN1CCN(C)CC1)OC(=O)c1ccc(Cl)cc1Cl (configuration not stated)" property=inhibition recorded_result=-4.53
compound=COc1cccc(N2CCN(CC(=O)Nc3nnc(-c4ccccc4)s3)CC2)c1 property=inhibition recorded_result=-3.12
compound=CCOC(=O)Cn1c(CN2CCN(c3cccc(Cl)c3)CC2)nc2c1c(=O)[nH]c(=O)n2C property=inhibition recorded_result=0

Please report the recorded inhibition for "COc1ccc(CCNC(=O)C2CCN(Cc3nc(-c4cccc(Cl)c4)oc3C)CC2)cc1OC" .
-5.13

Please report the recorded inhibition for Cc1cc(NC(=O)COC(=O)C2COc3ccccc3O2)no1 (configuration not stated) .
-4.61

Please report the recorded inhibition for CC1C(c2ccccc2)N(C)CCC12NC(=O)NC2=O (configuration not stated) .
-5.33

Please report the recorded inhibition for "COC(=O)CCCCCNc1ccc(C(=O)OC)cc1N" .
-7.16

Please report the recorded inhibition for "Cc1cccc2sc(NC(=O)Cn3cccc3)nc12" .
-1.67

Please report the recorded inhibition for CC(Oc1ccc(Cl)cc1Cl)c1nc(-c2ccc(NC(=O)c3cccnc3)cc2)no1 (configuration not stated) .
0

Please report the recorded inhibition for O=C(O)C1CC=CCC1C(=O)Nc1cc(Cl)ccc1Cl (configuration not stated) .
0

###

assay: growth inhibitors of H69AR lung tumor, primary screen, human, duplicate replicates (AID 580); details: H69AR lung tumor cells viability, ATP luminescence, 72 h; at 10 µM;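 also: 100% = mean luminescence of untreated wells and 0% = no signal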
The source made the active and inactive calls.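 The calls were made as follows: active = viability at or under a set limit in both replicates, limit being median viability minus 3 SD (cut at about 48% in these data, passing the limit was not always enough); inconclusive = at or under the limit in just one replicate; inactive = at or above the limit in both replicates.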
Answer with one of the outcomes given here: active, inactive

Worked examples, 5 molecules total:
molecule="C=CCOC(=O)C(C#N)c1nc2ccccc2nc1N1CCN(Cc2ccccc2)CC1 (stereo unspecified)" class=inactive
molecule=Cc1nc(/N=C(\N)Nc2ccccc2)nc2ccccc12 class=inactive
molecule=COc1ccccc1NC(=O)c1ccc(NC(=O)CSc2nnnn2C)cc1 class=active
molecule="CC(Sc1nnnn1-c1ccccc1)C(=O)Nc1ccc(Cl)cn1 (stereo unspecified)" class=inactive
molecule=CC1(C)Cc2noc(N)c2C(C)(C)N1OC(=O)c1ccco1 class=inactive

Test call, this molecule: "Cc1c(C(=O)NCc2cccnc2)oc2ccc(S(=O)(=O)N3CCCCC3)cc12"
inactive

Test call, this molecule: "COc1ccc(NC(=O)c2cc(C)on2)cc1OC"
inactive

Test call, this molecule: "CSc1nc(=NC(C)=O)ss1"
inactive

Test call, this molecule: "COc1ccc(S(=O)(=O)CCC(=O)O)cc1"
inactive

Test call, this molecule: "O=C(COc1ccccc1)NCCSCc1ccco1"
inactive

Test call, this molecule: "Cn1cc(CN2CCc3ccccc3C2)c2ccccc21"
inactive

###

assay: reversal of MRP1-mediated doxorubicin resistance, pilot screen, H69AR cells, doxorubicin co-treatment (AID 601); settings: H69AR cells + 2 uM doxorubicin, CellTiter-Glo, 72 h; at 10 µM; hits give high values
property: differential viability (reversal) (%)
Express the result in % but write the number alone.

Reference set (3 entries):
compound=CC(=O)c1cccc(NC(=O)N2CCCc3ccccc32)c1 recorded_result=2.88
compound=COc1cccc(OC)c1C(=O)N1CCN(S(=O)(=O)c2ccc(C)cc2)CC1 recorded_result=-5.23
compound=CCOc1cc(S(=O)(=O)N2CCC(Cc3ccccc3)CC2)c(OCC)cc1-n1cnnn1 recorded_result=32.5

Please report the recorded differential viability (reversal) for COc1ccccc1NC(=O)c1cc2n(n1)C(C(F)(F)F)CC(c1ccc3c(c1)OCO3)N2 (centres undefined) .
-13.8
